experimental_system: human SGLT1 (Homo sapiens)
Construct: expressed in transfected cells; host or cells: CHO-k1
Sequence (P13866 whole entry): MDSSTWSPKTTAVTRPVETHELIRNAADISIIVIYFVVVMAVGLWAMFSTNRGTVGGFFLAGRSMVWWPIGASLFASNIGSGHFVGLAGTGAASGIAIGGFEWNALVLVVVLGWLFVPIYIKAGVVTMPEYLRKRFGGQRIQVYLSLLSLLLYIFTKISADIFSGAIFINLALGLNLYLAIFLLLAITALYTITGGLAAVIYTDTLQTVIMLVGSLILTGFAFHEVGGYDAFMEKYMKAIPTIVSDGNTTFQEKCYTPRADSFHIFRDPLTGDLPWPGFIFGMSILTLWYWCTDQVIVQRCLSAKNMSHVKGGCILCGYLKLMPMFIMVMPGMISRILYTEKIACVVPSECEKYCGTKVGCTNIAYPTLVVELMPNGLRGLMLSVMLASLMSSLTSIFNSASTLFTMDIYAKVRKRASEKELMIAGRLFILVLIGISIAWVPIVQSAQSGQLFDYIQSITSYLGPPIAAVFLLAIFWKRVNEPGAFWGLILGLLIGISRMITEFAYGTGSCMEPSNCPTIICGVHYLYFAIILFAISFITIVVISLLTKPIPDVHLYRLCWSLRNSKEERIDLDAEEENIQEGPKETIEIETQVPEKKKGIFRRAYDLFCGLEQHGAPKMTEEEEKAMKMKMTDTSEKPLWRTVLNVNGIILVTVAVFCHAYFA
assay_method_text: Inhibition test of sodium-dependent sugar uptake in CHO-k1 cells stably expressing human SGLT1
Assay type: cell-based
test_context: sugar uptake inhibition rate at 100 nM test compound vs control group
assay_readout: SGLT1 % inhibition at 100 nM (%)
Quick reminder: number only, in %, skip the unit.

Answered examples (3):
>>> data_value("Cc1cc(O)c([C@@H]2O[C@H](CO)[C@@H](O)[C@H](O)[C@H]2O)cc1Cc1ccc(CCNC(=O)N(CC(C)C)CC(C)C)cc1")
67
>>> data_value("Cc1cc(O)c(C2OC(CO)C(O)C(O)C2O)cc1Cc1ccc(CCNC(=O)Nc2ccccc2C(O)c2ccccc2)cc1 (mixture of isomers)")
71
>>> data_value("Cc1cc(O)c([C@@H]2O[C@H](CO)[C@@H](O)[C@H](O)[C@H]2O)cc1Cc1ccc(CCNC(=O)NCc2ccco2)cc1")
78

Given the entry Cc1cc(O)c([C@@H]2O[C@H](CO)[C@@H](O)[C@H](O)[C@H]2O)cc1Cc1ccc(CCNC(=O)NC(Cc2ccccc2)C(N)=O)cc1 (stereo partly shown) , report its measured SGLT1 % inhibition at 100 nM.
66
